# Test system: cancer cell lines classified IM, MSL, M
# protocol_notes: PRISM screen compound sensitivity correlated with IM, MSL and M subtype of cell lines (101 gene signature)
# Format: cell-based
# experimental_conditions: correlation of PRISM compound sensitivity with M subtype correlation; test cell set (188 cell lines)
Readings of M Corr test for the listed molecules
# answer = number (no unit)

Solved cases below.
Entry COc1cccc(Nc2ncnn3ccc(CN4CC[C@@H](N)[C@H](O)C4)c23)c1 [BMS-690514] , system cancer cell lines classified IM, MSL, M: what M Corr test was measured? 0.2486

Entry Cc1nn(C)c2c1C(c1cccc(Cl)c1)=NCCN2 [zometapine] , system cancer cell lines classified IM, MSL, M: what M Corr test was measured? 0.04602

Entry CCN(CC)CCCCN1c2ccccc2Oc2ccc(Cl)cc21 [10-DEBC] , system cancer cell lines classified IM, MSL, M: what M Corr test was measured? −0.0627

Okay, next one:
Entry CC(C)(C)NCc1cc(Nc2ccnc3cc(Cl)ccc23)c2c(c1O)CCCC2.O=P(O)(O)O.O=P(O)(O)O [naphthoquine-phosphate] , system cancer cell lines classified IM, MSL, M: what M Corr test was measured? 0.03443

---

# System: cancer cell lines classified IM, MSL, M
# protocol_notes: PRISM screen compound sensitivity correlated with IM, MSL and M subtype of cell lines (101 gene signature)
# Type: cell-based
# experimental_conditions: correlation of PRISM compound sensitivity with M subtype correlation; test cell set (188 cell lines)
endpoint_label: M Corr test
# answer = number (no unit)

Solved cases below.
Requested field: M Corr test. Item: COc1cc2ncnc(Nc3cccc(Cl)c3)c2cc1OC [tyrphostin-AG-1478] 0.2259

Requested field: M Corr test. Item: CN(C)C(=O)CCSC(SCCC(=O)O)c1cccc(/C=C/c2ccc3ccc(Cl)cc3n2)c1 (centres unmarked) [MK-571] −0.02967

Requested field: M Corr test. Item: COc1ccc([C@H]2CNC(=O)C2)cc1OC1CCCC1 [rolipram-S(+)] −0.06383

Requested field: M Corr test. Item: C[C@H](C[C@H](N)C(=O)O)C(=O)O [SYM-2081] 0.01603

Continuing:
Requested field: M Corr test. Item: CNC(C)CCC=C(C)C.CNC(C)CCC=C(C)C.O=C(O)[C@@H](O)[C@H](O)[C@H](O)[C@@H](O)C(=O)O [isometheptene-mucate] 0.05313

Requested field: M Corr test. Item: CCOc1ccc(-n2c([C@@H](C)N(Cc3cccnc3)C(=O)Cc3ccc(OC(F)(F)F)cc3)nc3ncccc3c2=O)cc1 [AMG-487] 0.04766

Requested field: M Corr test. Item: C[C@]12CC[C@H]3[C@@H](CC[C@]4(O)C[C@@H](O)CC[C@]34C=O)[C@@]1(O)CC[C@@H]2C1=CC(=O)OC1 [k-strophanthidin] −0.03165

Requested field: M Corr test. Item: COc1cc2c(NC3CCN(C(C)C)CC3)nc(C3CCCCC3)nc2cc1OCCCN1CCCC1 [UNC0638] 0.1332

---

# Tested on: cancer cell lines classified IM, MSL, M
# protocol_notes: PRISM screen compound sensitivity correlated with IM, MSL and M subtype of cell lines (101 gene signature)
# Type: cell-based
# experimental_conditions: correlation of PRISM compound sensitivity with MSL subtype correlation; test cell set (188 cell lines)
Readings of MSL Corr test for the listed compounds

Solved cases below.
Requested field: MSL Corr test. Item: O=C1[C@H](Cc2ccc(O)cc2)N2C(=O)CCN(C(=O)NCc3ccccc3)[C@H]2CN1Cc1cccc2ccccc12 [ICG-001] 0.01929

Requested field: MSL Corr test. Item: C/C(=C\C(=O)Nc1ccccc1C(=O)O)c1ccc2ccccc2c1 [BIBR-1532] −0.1482

Requested field: MSL Corr test. Item: NC(=O)c1cccc(-c2cc(Nc3ccc(OC(F)(F)F)cc3)ncn2)c1 [GNF-2] −0.05938

Requested field: MSL Corr test. Item: CN1C(=O)C(N2CCCCC2)S/C1=C\C(=O)O (centres unmarked) [ozolinone] −0.06039

Continuing:
Requested field: MSL Corr test. Item: Nc1ncnc2c1c(-c1cnc3[nH]ccc3c1)nn2C1CCCC1 [PP-121] 0.02379
